- experimental_protocol: DRUGMATRIX: Calcium Channel Type L, Phenylalkylamine radioligand binding (ligand: [3H] (-)-Desmethoxyverapamil (D-888))
- Type: cell membranes, Rattus norvegicus, Wistar, Brain, Membrane
- condition: Not Active = under 50% inhibition at 10 µM

{"columns": ["compound", "Ki"],
 "data": [
  ["CC(O)C(=O)O (configuration not stated)", "Not Active"],
  ["ClC1=C(Cl)[C@]2(Cl)[C@@H]3[C@@H]4C[C@@H]([C@H]5O[C@@H]45)[C@@H]3[C@@]1(Cl)C2(Cl)Cl", "Not Active"],
  ["CN(CCOc1ccc(C[C@H](Nc2ccccc2C(=O)c2ccccc2)C(=O)O)cc1)c1ccccn1", "Not Active"],
  ["CCCCCCNC(=O)n1cc(F)c(=O)[nH]c1=O", "Not Active"],
  ["CCN1C[C@]2(COC)[C@H](O)C[C@H](OC)[C@@]34[C@@H]5C[C@@]6(O)[C@H](OC(=O)c7ccccc7)[C@@H]5[C@@](OC(C)=O)([C@@H]([C@H](OC)[C@H]23)[C@@H]14)[C@@H](O)[C@@H]6OC", "Not Active"],
  ["COC(=O)Nc1nc2ccc(C(=O)c3ccccc3)cc2[nH]1", "Not Active"],
  ["C[C@]12CC[C@@H](O)C[C@@H]1CC[C@@H]1[C@@H]2CC[C@]2(C)C(=O)CC[C@@H]12", "Not Active"]
]}

###

- experimental_protocol: DRUGMATRIX: GABAA, Chloride Channel, TBOB radioligand binding (ligand: [3H] TBOB)
- Format: cell membranes, Rattus norvegicus, Wistar, Cerebral cortex, Membrane
- condition: Not Active = under 50% inhibition at 10 µM
quantity: Ki

{"columns": ["compound_string", "reported_result"],
 "data": [
  ["Cc1ccnc2c1NC(=O)c1cccnc1N2C1CC1", "Not Active"],
  ["COC(=O)Nc1nc2ccc(Sc3ccccc3)cc2[nH]1", "Not Active"],
  ["CC[C@@]1(O)C(=O)OCc2c1cc1n(c2=O)Cc2cc3c(CN(C)C)c(O)ccc3nc2-1", "Not Active"],
  ["Cc1cn([C@H]2C=C[C@@H](CO)O2)c(=O)[nH]c1=O", "Not Active"],
  ["OC[C@@H](O)[C@@H](O)[C@H](O)[C@H](O)CO", "Not Active"],
  ["NC(N)=Nc1nc(CSCCC(N)=NS(N)(=O)=O)cs1", "Not Active"],
  ["OC[C@H]1O[C@@H]2O[C@H]3[C@H](O)[C@@H](O)[C@@H](O[C@H]4[C@H](O)[C@@H](O)[C@@H](O[C@H]5[C@H](O)[C@@H](O)[C@@H](O[C@H]6[C@H](O)[C@@H](O)[C@@H](O[C@H]7[C@H](O)[C@@H](O)[C@@H](O[C@H]1[C@H](O)[C@H]2O)O[C@@H]7CO)O[C@@H]6CO)O[C@@H]5CO)O[C@@H]4CO)O[C@@H]3CO", "Not Active"]
]}

###

- experimental_protocol: DRUGMATRIX: Imidazoline I2, Central radioligand binding (ligand: [3H] Idazoxan)
- Type: cell membranes, Rattus norvegicus, Wistar, Cerebral cortex, Membrane
- condition: Not Active = under 50% inhibition at 10 µM
quantity: Ki

{"columns": ["molecule", "reported_result"],
 "data": [
  ["CC(C)NCC(O)COc1ccc(CC(N)=O)cc1 (stereo not drawn)", "Not Active"],
  ["c1ccc2sc(SSc3nc4ccccc4s3)nc2c1 [BENZOTHIAZYL DISULFIDE]", "Not Active"],
  ["C#C[C@]1(O)CC[C@H]2[C@@H]3CCC4=CC(=O)CC[C@@H]4[C@H]3CC[C@@]21C", "Not Active"],
  ["ClC1=C(Cl)[C@]2(Cl)[C@@H]3[C@@H]4C[C@@H]([C@H]5O[C@@H]45)[C@@H]3[C@@]1(Cl)C2(Cl)Cl", "Not Active"],
  ["CCC(C)(C)C(=O)O[C@H]1C[C@@H](C)C=C2C=C[C@H](C)[C@H](CC[C@@H]3C[C@@H](O)CC(=O)O3)[C@H]21", "Not Active"],
  ["CC12CCC(CC1)C(C)(C)O2", "Not Active"],
  ["CCN1CCCC1CNC(=O)c1cc(S(N)(=O)=O)ccc1OC (stereo not drawn) [SULPIRIDE]", "Not Active"],
  ["Oc1ccccc1", "Not Active"]
]}
